B1: CPEB3 Ribozyme (parent)
chain: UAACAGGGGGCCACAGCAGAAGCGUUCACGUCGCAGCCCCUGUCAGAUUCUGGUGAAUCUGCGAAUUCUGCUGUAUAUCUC

# Variants of: B1
# testDescription: self-cleavage, relative activity (ratio to wild type); higher = more cleavage; in vitro, sequencing
Items are presented alongside their recorded self-cleavage.

Sample answers from the record:
// returns reported self-cleavage for input UAACAGGGGGCCACAGCAGAAGCGUUCACGUCGCAGCCCCUGUCAGAUUCUGGUGAAACUGCGAAUUCUGCUGUAUCUCUC [U58A A77C]
0.33

Which self-cleavage value belongs to UAACAGUGGGCCACAGCAGAAGCGUUCACGUCGCAGCCCCUGUCAGAUUCUGGUGAAUCUGCGAAUUCUGCUGUAUACCUC [G7U U78C] ?
0.13

Can you share its self-cleavage? I mean this variant: UAACAGGGGGCCACAGCAGAAGCGUUCACGUCGCAGCCCCUGUCAGUUUCUGGUGAUUCUGCGAAUUCUGCUGUAUAUCUC [A47U A57U]
0.64

Looking for the measured self-cleavage of UAGCAGGGGGCCACAGCAGAAGCGUUCACGUCGCAGCCCCUGUCUGAUUCUGGUGAAUCUGCGAAUUCUGCUGUAUAUCUC [A3G A45U] , can you help?
0.4

Please report the recorded self-cleavage for UAACAGGGGGCCACAGCAGAAGCGUUCACGUCGCAGCCCCUGUCAGAUUCUGGAGAAUCUGCGAAUUCUGCUGUAUAUGUC [U54A C79G] .
1.23

Let us move to another entry and its self-cleavage.
Item under review: UAACAGGGGGCUACAGCAGAAGCGUUCACGUCGCAGCCCCUGUCAGAUUCCGGUGAAUCUGCGAAUUCUGCUGUAUAUCUC [C12U U51C] . Reported self-cleavage?
1.25

Values compiled from the RNAGym collection of RNA variant scans (doi:10.1093/nar/gkz1192).
